- target_or_system: T1, RBFOX1 RRM (Homo sapiens, UniProt Q9NWB1 109-208)
- T1 sequence: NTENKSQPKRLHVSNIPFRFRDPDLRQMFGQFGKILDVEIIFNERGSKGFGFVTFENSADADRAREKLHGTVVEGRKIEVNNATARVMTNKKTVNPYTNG
- test: EMSA; HiTS-Eq, 1 nM pool, 10 min; buffer printed only for the single-RNA assays: 10 mM Tris pH 7.5, 150 mM NaCl, 3.4 mM EDTA, 0.001% NP-40, 30 C
- reported_conditions: tags: His6 N-terminal (pET28a); label: 5' 32P
Over roughly 16,000 sequences, “ka relative to ugcaugu” has its median near 0.0091; the highest 2% begin near 0.032. The list comes from a sample in which the highest values are over-represented; it also holds close analogues and randomly drawn sequences.
endpoint_label: binding signal

[[record]]
binder = "GGAUGCU (DNA:RNA) RNA: GGGAGACCGGAAUUCAGAUUGUCCGGAUGCUUUAAAUCCCGUCGUAGCCACCA DNA 1: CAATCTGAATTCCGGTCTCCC DNA 2: TGGTGGCTACGACGGGATT"
result = "0.0261 KA relative to UGCAUGU"

[[record]]
binder = "CGGCUUG (DNA:RNA) RNA: GGGAGACCGGAAUUCAGAUUGUCCCGGCUUGUUAAAUCCCGUCGUAGCCACCA DNA 1: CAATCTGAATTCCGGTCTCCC DNA 2: TGGTGGCTACGACGGGATT"
result = "0.0325 KA relative to UGCAUGU"

[[record]]
binder = "AGGGAGG (DNA:RNA) RNA: GGGAGACCGGAAUUCAGAUUGUCCAGGGAGGUUAAAUCCCGUCGUAGCCACCA DNA 1: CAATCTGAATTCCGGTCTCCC DNA 2: TGGTGGCTACGACGGGATT"
result = "0.0245 KA relative to UGCAUGU"

[[record]]
binder = "GGGAUGC (DNA:RNA) RNA: GGGAGACCGGAAUUCAGAUUGUCCGGGAUGCUUAAAUCCCGUCGUAGCCACCA DNA 1: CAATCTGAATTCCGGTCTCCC DNA 2: TGGTGGCTACGACGGGATT"
result = "0.0515 KA relative to UGCAUGU"


Data provenance: paper PMC9911399
